target: human plasma kallikrein (Homo sapiens); construct: human plasma kallikrein; from tissue; host or cells: human plasma (from the name); assay: Inactivation rate of human plasma kallikrein; format: biochemical; conditions: Table I; pH 7.5, 25° C; [I] 3 to 330 μM (footnote g); read-out: kobs/[I]
Sequence (P03952 391-638 limits assumed): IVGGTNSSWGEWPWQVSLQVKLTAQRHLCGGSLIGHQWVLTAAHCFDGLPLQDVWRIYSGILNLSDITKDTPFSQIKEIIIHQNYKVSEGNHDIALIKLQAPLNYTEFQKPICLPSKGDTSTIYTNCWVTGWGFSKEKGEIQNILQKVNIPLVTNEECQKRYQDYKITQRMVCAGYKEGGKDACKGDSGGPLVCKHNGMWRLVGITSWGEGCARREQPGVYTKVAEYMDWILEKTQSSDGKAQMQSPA
Sequence (P03952 20-390 partner limits assumed): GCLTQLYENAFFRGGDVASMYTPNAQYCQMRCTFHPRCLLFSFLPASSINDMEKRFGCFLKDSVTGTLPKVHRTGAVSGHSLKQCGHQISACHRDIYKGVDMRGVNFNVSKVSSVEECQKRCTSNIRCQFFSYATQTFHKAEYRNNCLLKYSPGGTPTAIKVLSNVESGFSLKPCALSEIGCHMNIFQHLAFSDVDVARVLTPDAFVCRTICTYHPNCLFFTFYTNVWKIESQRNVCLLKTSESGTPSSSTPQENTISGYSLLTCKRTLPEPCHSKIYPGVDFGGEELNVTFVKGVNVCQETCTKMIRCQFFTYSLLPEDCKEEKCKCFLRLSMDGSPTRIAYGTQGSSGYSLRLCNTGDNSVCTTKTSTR
READOUT: kinact/KI (M⁻¹ s⁻¹)

1. NCCCOc1cc2ccccc2c(=O)o1 [3-(3-aminopropoxy)isocoumarin] = 30
2. COc1cc2ccc(NC(=N)N)cc2c(=O)o1 [7-guanidino-3-methoxyisocoumarin] = 13000
3. NCCCOc1oc(=O)c2ccccc2c1Cl [3-(3-aminopropoxy)-4-chloroisocoumarin] = 1400
4. N=C(N)SCCCOc1oc(=O)c2cc(N)ccc2c1Cl = 1100
5. CCOc1cc2ccc(NC(=N)N)cc2c(=O)o1 [7-guanidino-3-ethoxyisocoumarin] = 44000
6. N=C(N)Nc1ccc2cc(OCCc3ccccc3)oc(=O)c2c1 = 62000

###

target: bovine thrombin (Bos taurus, UniProt P00735); construct: bovine thrombin; assay: Inactivation rate of bovine thrombin; format: biochemical; conditions: Table VIII; pH 7.5, 25° C; [I] 1.2-54 μM; read-out: kobs/[I]
The compounds listed here are annotated with their kinact/KI.
READOUT: kinact/KI

1. N=C(N)SCCOc1oc(=O)c2cc(NC(=O)Nc3ccccc3)ccc2c1Cl [PhNHCONH-CiTEtOIC] = 25000 M⁻¹ s⁻¹
2. N=C(N)SCCOc1oc(=O)c2cc(NC(=O)NCc3ccccc3)ccc2c1Cl [PhCH2 NHCONH-CiTEtOIC] = 16800 M⁻¹ s⁻¹
3. C[C@@H](NC(=O)Nc1ccc2c(Cl)c(OCCSC(=N)N)oc(=O)c2c1)c1ccccc1 [R-C6 H5 (CH3)CHNHCONH-CiTEtOIC] = 29500 M⁻¹ s⁻¹
4. N=C(N)SCCCOc1oc(=O)c2cc(NC(=O)[C@H](N)Cc3ccccc3)ccc2c1Cl [D-Phe--NH-CiTPrOIC] = 180 M⁻¹ s⁻¹
5. N=C(N)SCCCOc1oc(=O)c2cc(NC(=O)NCc3ccccc3)ccc2c1Cl [PhCH2 NHCONH-CiTPrOIC] = 420 M⁻¹ s⁻¹
6. C[C@H](NC(=O)Nc1ccc2c(Cl)c(OCCSC(=N)N)oc(=O)c2c1)c1ccccc1 [S-C6 H5 (CH3)CHNHCONH-CiTEtOIC] = 41300 M⁻¹ s⁻¹
7. N=C(N)SCCOc1oc(=O)c2cc(NC(=O)[C@H](N)Cc3ccccc3)ccc2c1Cl [D-Phe--NH-CiTEtOIC] = 4240 M⁻¹ s⁻¹
8. C[C@H](N)C(=O)N[C@@H](C)C(=O)Nc1ccc2c(Cl)c(OCCSC(=N)N)oc(=O)c2c1 [Ala--Ala--NH-CiTEtOIC] = 1070 M⁻¹ s⁻¹
9. CC(=O)Nc1ccc2c(Cl)c(OCCCSC(=N)N)oc(=O)c2c1 [CH3 CONH-CiTPrOIC] = 420 M⁻¹ s⁻¹
10. N=C(N)SCCCOc1oc(=O)c2cc(NC(=O)Nc3ccccc3)ccc2c1Cl [PhNHCONH-CiTPrOIC] = 970 M⁻¹ s⁻¹
11. CC(C)NC(=O)Nc1ccc2c(Cl)c(OCCSC(=N)N)oc(=O)c2c1 [(CH3)2 CHNHCONH-CiTEtOIC] = 4100 M⁻¹ s⁻¹
12. N=C(N)SCCCOc1oc(=O)c2cc(NC(=O)[C@@H](N)Cc3ccccc3)ccc2c1Cl [L-Phe--NH-CiTPrOIC] = 400 M⁻¹ s⁻¹
13. CC(C)(C)OC(=O)N[C@H](Cc1ccccc1)C(=O)Nc1ccc2c(Cl)c(OCCSC(=N)N)oc(=O)c2c1 [Boc-D-Phe--NH-CiTEtOIC] = 1040 M⁻¹ s⁻¹
14. CC(C)(C)OC(=O)N[C@H](Cc1ccccc1)C(=O)Nc1ccc2c(Cl)c(OCCCSC(=N)N)oc(=O)c2c1 [Boc-D-Phe--NH-CiTPrOIC] = 190 M⁻¹ s⁻¹
15. CC(C)(C)OC(=O)N[C@@H](Cc1ccccc1)C(=O)Nc1ccc2c(Cl)c(OCCCSC(=N)N)oc(=O)c2c1 [Boc-L-Phe--NH-CiTPrOIC] = 330 M⁻¹ s⁻¹

Cited source: patent US5324648A
